Target: Cytochrome P450 2C9 (Homo sapiens)
Test: Cytochrome panel assay with activity outcomes
Details: recombinant CYP, pro-luciferin dealkylation, luminescence, p450-cyp2c9; series mostly up to 57.1 µM
Experimental: The P450 gene superfamily is involved in the metabolism and clearance of xenobiotics. This assay used various human CYP P450 isozymes to measure the dealkylation of various pro-luciferin substrates to luciferin. The luciferin is then measured by luminescence after the addition of a luciferase detection reagent. […] Inhibitors and some substrates limit the production of luciferin, and decrease measured luminescence. […] 8, Detection, 1 sec, ViewLux luminescent read […]
The whole screen tested about 16,000 compounds, of which about 4,000 (25%) were called active. Another 26% or so got no clear call; they are omitted. The list is a sample of the results.
experimental endpoint: AC50

compound	AC50
NC(N)=NC(N)=Nc1ccccc1	inactive
O=C1CCCCC(=O)c2ccccc2N1	inactive
Cc1oc(-c2ccccc2F)nc1CSCC(=O)NCc1ccc2c(c1)OCO2	4.47 µM (active)
c1cc(-c2sc(-c3ccncc3)c(-c3ccncc3)c2-c2ccncc2)ccn1	2 µM (active)
COC(=O)c1sccc1NC(=O)c1cc(-c2ccc(C)cc2C)nc2ccccc12	2.24 µM (active)

Could you tell me AC50 for each of these compounds? They are listed below.
1. C[C@H](N)CCCC(C)(C)O
2. Cc1occc1C(=O)NNC(=O)c1ccc(F)cc1

[reply]
1. inactive
2. inactive
